Test system: HepaRG® cells
protocol details: Hepatotoxicity assay
Format: cell-based
condition details: 10 μM, 48 h
metric name: Number of cells
Answer field: number only, no words.

[[record]]
compound = "C/C(=C\\CC/C(C)=C/CCC1(C)CCc2c(C)c(O)c(C)c(C)c2O1)CCC=C(CO)CO (centres unmarked)"
target_system = "HepaRG® cells"
test_result = 4702


Note down Number of cells recorded for C/C(=C\CC/C(C)=C/CCC1(C)CCc2c(C)c(O)cc(C)c2O1)CCC=C(CO)CO (centres unmarked) 4785

Note down Number of cells recorded for C/C(=C/CC/C(C)=C/CC/C(C)=C/CCC1(C)CCc2cc(O)c(C)c(C)c2O1)CO (centres unmarked) 4610

Note down Number of cells recorded for C/C(=C\CC/C(C)=C/CCC1(C)CCc2cc(O)c(C)c(C)c2O1)CCC=C(CO)CO (centres unmarked) 4677

Note down Number of cells recorded for CC(c1cc2ccccc2s1)N(O)C(N)=O (centres unmarked) [Zileuton, reference compound] 4554

====

Property: IC50; scope: individual compounds
target system: human recombinant 5-LO (Homo sapiens)
Construct: made in house; inferred to be the same preparation
Sequence (P09917 whole entry): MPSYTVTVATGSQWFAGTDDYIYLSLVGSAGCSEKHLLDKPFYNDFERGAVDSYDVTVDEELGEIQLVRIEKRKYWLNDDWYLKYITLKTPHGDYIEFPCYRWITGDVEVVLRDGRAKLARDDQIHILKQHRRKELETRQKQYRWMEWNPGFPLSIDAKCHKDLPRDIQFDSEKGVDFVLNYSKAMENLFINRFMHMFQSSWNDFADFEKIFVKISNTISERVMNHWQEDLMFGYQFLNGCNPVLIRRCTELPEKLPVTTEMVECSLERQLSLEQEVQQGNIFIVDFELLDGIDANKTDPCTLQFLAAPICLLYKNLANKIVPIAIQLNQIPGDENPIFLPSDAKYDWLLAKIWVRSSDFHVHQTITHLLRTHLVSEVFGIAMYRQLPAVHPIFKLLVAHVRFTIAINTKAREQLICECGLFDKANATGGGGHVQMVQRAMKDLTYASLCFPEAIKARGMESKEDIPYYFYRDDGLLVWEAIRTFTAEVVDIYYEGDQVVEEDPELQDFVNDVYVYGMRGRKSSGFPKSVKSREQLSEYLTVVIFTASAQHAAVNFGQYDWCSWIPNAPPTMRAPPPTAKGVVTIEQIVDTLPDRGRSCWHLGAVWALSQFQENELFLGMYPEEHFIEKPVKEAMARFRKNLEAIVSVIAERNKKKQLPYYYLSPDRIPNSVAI
protocol details: Human recombinant 5-LO activity
Format: biochemical
condition details: human recombinant 5-LO; read-out: IC50 (nM) 5-LO activity
Write the value in nM as a bare number.

[[record]]
compound = "C/C(=C\\CC/C(C)=C/CCC1(C)CCc2cc(O)cc(C)c2O1)CCC=C(CO)CO (centres unmarked) [Compound 26]"
test_result = 148

[[record]]
compound = "C/C(=C\\CC/C(C)=C/CCC1(C)CCc2cc(O)c(C)c(C)c2O1)CCC=C(CO)CO (centres unmarked) [Compound 34]"
test_result = 110

[[record]]
compound = "C/C(=C/CC/C(C)=C/CC/C(C)=C/CCC1(C)CCc2cc(O)c(C)c(C)c2O1)CO (centres unmarked) [Compound 33]"
test_result = 120

[[record]]
compound = "C/C(=C/CC/C(C)=C/CC/C(C)=C/CCC1(C)CCc2cc(O)cc(C)c2O1)CO (centres unmarked) [Compound 23]"
test_result = 137


Now look at this one.
Would you please give the reported IC50 of C/C(=C\CC/C(C)=C/CCC1(C)CCc2c(C)c(O)c(C)c(C)c2O1)CCC=C(CO)CO (centres unmarked) [Compound 1] with human recombinant 5-LO (Homo sapiens)? 106
